Would you mind telling me the reported folding stability dG of each entry?
B1: 1ZHC (parent)
chain: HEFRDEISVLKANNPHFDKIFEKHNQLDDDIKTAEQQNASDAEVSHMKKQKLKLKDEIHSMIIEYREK

- Variants of: B1
- assay-notes: folding stability dG (cDNA display proteolysis); higher = more stable
- assay-conditions: PBS, room temperature
Give bare numbers, in kcal/mol.

Guide cases for folding stability dG, answers given:
E35L
1.67
D28S
0.804
E22G
0.979

Give me folding stability dG for each of these variants, listed below.
1. N14E
2. K32M
3. L52G
4. K55M
5. A39V
6. I58F

## Result
[-0.24, 0.333, -0.063, 1.72, 0.986, 0.304]

Record folding stability dG for all entries; do not skip any.
1. E2T
2. K68F
3. Q37F
4. K32C
5. D30I

## Result
0.802
0.363
0.569
0.133
0.712

Provide the reported folding stability dG of each entry below, same order.
1. S45E
2. K19L
3. K32V
4. D56F
5. E35T

## Result
[1.07, 0.515, 0.251, 1.18, 0.201]
